Data origin, for the record: the supplement of paper PMC6522484

Test system: DLD1
Experiment: TCF/Wnt firefly luciferase reporter signal relative to plate median (fraction of plate median); higher = higher Wnt reporter signal
Details: 10 µM; treatment time 24 h; reporter: 7TFP
For each record, write down the corresponding TCF/Wnt firefly luciferase reporter signal.
Lab note: jot the number down without any unit.

Inquiry: Query (compound): COc1cc(Nc2c(C#N)cnc3cc(OCCCN4CCN(C)CC4)c(OC)cc23)c(Cl)cc1Cl [Bosutinib (SKI-606)] ; field requested: TCF/Wnt firefly luciferase reporter signal
Reply text: 0.468

Inquiry: Looking for the measured TCF/Wnt firefly luciferase reporter signal of C[S+]([O-])c1ccc(-c2nc(-c3ccc(F)cc3)c(-c3ccncc3)[nH]2)cc1 (centres undefined) , can you help?
Reply text: 0.82

Inquiry: # TCF/Wnt firefly luciferase reporter signal lookup, item C#Cc1cccc(Nc2ncnc3cc(OCCOC)c(OCCO)cc23)c1 [OSI-420 (Desmethyl Erlotinib)]
Reply text: 0.826

Inquiry: Fill blank: measured TCF/Wnt firefly luciferase reporter signal of the compound O=C1NC(=O)C(=Cc2ccc(-c3ccc(F)cc3)o2)S1 (stereo in doubt) is ____.
Reply text: 1.25

Inquiry: TCF/Wnt firefly luciferase reporter signal for "CNC(=O)c1ccc(-c2cnc3ncc(Cc4ccc5ncccc5c4)n3n2)cc1F" ?
Reply text: 1.07

Inquiry: Look up TCF/Wnt firefly luciferase reporter signal: "NC(=O)c1ccc(N(C(N)=O)c2c(F)cccc2F)nc1-c1ccc(F)cc1F"
Reply text: 0.904

Inquiry: Item under review: "CC(C)(C)c1cc(NC(=O)Nc2ccc(-c3cn4c(n3)sc3cc(OCCN5CCOCC5)ccc34)cc2)no1" . Reported TCF/Wnt firefly luciferase reporter signal?
Reply text: 0.789

Inquiry: Can you share its TCF/Wnt firefly luciferase reporter signal? I mean this compound: "COc1cc(OC)c(/C=C/S(=O)(=O)Cc2ccc(OC)c(NCC(=O)O)c2)c(OC)c1"
Reply text: 0.726

Inquiry: Form field: reported TCF/Wnt firefly luciferase reporter signal of "O=C1NC(=O)/C(=C/c2ccc3nccc(-c4ccncc4)c3c2)S1"
Reply text: 0.312
